System: phosphorylation of Retinoblastoma Protein (pRb Ser807/811 or Ser780) in T47D cells
Assay: Inhibition of phosphorylation of retinoblastoma protein (pRb) in T47D cell (ELISA)
Assay type: cell-based, human
Conditions: Homo sapiens, T47D, read-out: Phospho T47D Ser807 IC50, pRb Ser807 phosphorylation, T47D cells
pIC50: −log10 of the molar value.
For each record, write down the corresponding pIC50.

[[record]]
compound = "COc1nc(-c2nc(Nc3ccc(N4CCCNCC4=O)cn3)ncc2F)cc2c1nc(C)n2C(C)C [compound 113]"
reported_result = "6.30 to 7.00"

[[record]]
compound = "CC1CN(c2ccc(Nc3ncc(F)c(-c4ccn5ncc(C(C)C)c5c4)n3)nc2)C(=O)CCN1 (stereo not shown) [compound 194]"
reported_result = "> 7.00"

[[record]]
compound = "COc1nc(-c2nc(Nc3ccc(N4CCN(CCF)CC4)cn3)ncc2F)cc2c1ncn2C(C)C [compound 125]"
reported_result = "6.30 to 7.00"

[[record]]
compound = "CC(C)c1cnn2ccc(-c3nc(Nc4ccc(N5CCN(CC(F)(F)F)CC5=O)cn4)ncc3F)cc12 [compound 53]"
reported_result = "> 7.00"

[[record]]
compound = "COc1nc(-c2ccnc(Nc3ccc(N4CCC(N5CC(F)C5)CC4=O)cn3)n2)cc2c1ncn2C(C)C (stereo not shown) [compound 99]"
reported_result = "> 7.00"


Go through the items and report each one's pIC50.
1. CC(C)c1cnn2ccc(-c3ccnc(Nc4ccc(N5CCC=CC5=O)cn4)n3)cc12 [compound 184]
2. CCN1CCN(c2ccc(Nc3ncc(F)c(-c4cc5c(nc(C)n5C(C)C)c(OC)n4)n3)nc2)C(=O)C1 [Synthetic Example 128]

1. > 7.00
2. > 7.00

----------
Molecular target: CDK2/CyclinE1 (Homo sapiens)
Construct: purchased SignalChem C29-18G
Assay: Assay for inhibition of CDK2/CyclinE1 (Caliper microfluidic kinase assay)
Type: biochemical
Conditions: CDK2/CyclinE1, 100 μM ATP; read-out: CDK2 IC50
For each record, write down the corresponding IC50.

[[record]]
molecule = "COc1nc(-c2nc(Nc3ccc(N4CCN(S(C)(=O)=O)CC4=O)cn3)ncc2F)cc2c1nc(C)n2C(C)C [Synthetic Example 127]"
quantity_name = "IC50"
reported_result = "100 to 1000 nM"

[[record]]
molecule = "CC(C)c1cnn2ccc(-c3nc(Nc4ccc(N5CC6CCC(CC5=O)N6)cn4)ncc3F)cc12 (stereo not drawn)"
quantity_name = "IC50"
reported_result = "10 to 100 nM"

[[record]]
molecule = "CC(C)n1cnc2c1CN(c1nc(Nc3ccc(N4CCNCC4=O)cn3)ncc1F)CC2"
quantity_name = "IC50"
reported_result = "10 to 100 nM"


Go through the items and report each one's IC50.
1. Cc1nn2ccc(-c3ccnc(Nc4ccc(N5CCCC(N(C)C)C5=O)cc4)n3)cc2c1C(C)C (stereo not drawn)
2. CC(C)c1cnn2ccc(-c3ccnc(Nc4ccc(N5CCC(N)CC5=O)cn4)n3)cc12 (stereo not drawn)
3. COc1nc(-c2ccnc(Nc3ccc4c(n3)CCN(C(=O)CN(C)C)C4)n2)cc2c1ncn2C(C)C [Synthetic Example 140]

1: 100 to 1000 nM; 2: < 10 nM; 3: > 1000 nM

----------
Target: CDK2/CyclinE1 (Homo sapiens)
Construct: purchased SignalChem C29-18G
Test: Assay for inhibition of CDK2/CyclinE1 (Caliper microfluidic kinase assay)
Type: biochemical
Details: CDK2/CyclinE1, 100 μM ATP; read-out: CDK2 IC50
quantity-name: IC50

Go through the items and report each one's IC50.
1. CC(C)c1cnn2ccc(-c3nc(Nc4ccc(N5CCCNCC5=O)cn4)ncc3F)cc12
2. CC(C)c1cnn2ccc(-c3nc(Nc4ccc(N5CCN(CCO)CCC5=O)cn4)ncc3F)cc12 [Synthetic Example 52]

1. 10 to 100 nM
2. 10 to 100 nM

Go through the items and report each one's IC50.
1. CC(C)c1cnn2ccc(-c3ccnc(Nc4ccc(N5CCC=CC5=O)cn4)n3)cc12
2. COc1nc(-c2ccnc(Nc3ccc(N4CCN(CCF)CC4=O)cn3)n2)cc2c1ncn2C(C)C
3. CC(C)c1cnn2ccc(-c3ccnc(Nc4ccc(C(=O)N5CCC(N(C)C)C5)cc4F)n3)cc12 (stereo not shown)
4. CC(C)c1cnn2ccc(-c3ccnc(Nc4ccc(N5CCNCC5=O)nc4)n3)cc12

1: 10 to 100 nM; 2: 100 to 1000 nM; 3: 10 to 100 nM; 4: < 10 nM

Go through the items and report each one's IC50.
1. CNC1CCCN(c2ccc(Nc3nccc(-c4ccn5ncc(C(C)(C)C)c5c4)n3)nc2)C1=O (stereo not shown)
2. CC(C)n1cnc2c1CN(c1nc(Nc3ccc(N4CCNCC4=O)cc3F)ncc1F)CC2
3. CC(C)c1cnn2ccc(-c3ccnc(Nc4ccc(C(=O)N5CCC5)cc4)n3)cc12
4. Cc1nn2ccc(-c3ccnc(Nc4ccc(N5CCCC(N)C5=O)cc4)n3)cc2c1C(C)C (stereo not shown)

1. > 1000 nM
2. < 10 nM
3. < 10 nM
4. 10 to 100 nM

Go through the items and report each one's IC50.
1. CCN1CCN(c2ccc(Nc3ncc(F)c(-c4ccn5ncc(C(C)C)c5c4)n3)nc2)C(=O)C1
2. CCN1CCN(c2ccc(Nc3nccc(N4CCc5ncn(C(C)C)c5C4)n3)nc2)C(=O)C1
3. CCN(CC)C1CCN(c2ccc(Nc3nccc(-c4ccn5ncc(C(C)C)c5c4)n3)nc2)C(=O)C1 (stereo not shown)
4. CCN1CCN(c2ccc(Nc3nccc(-c4ccn5ncc(C(C)C)c5c4)n3)nc2)C(=O)C1

1. 10 to 100 nM
2. 100 to 1000 nM
3. 10 to 100 nM
4. 10 to 100 nM

Go through the items and report each one's IC50.
1. COc1nc(-c2ccnc(Nc3ccc(N4CCNCC4=O)cc3F)n2)cc2c1ncn2C(C)C
2. COc1nc(-c2nc(Nc3ccc(N4CCN(C5COC5)CC4)cn3)ncc2F)cc2c1ncn2C(C)C

1: 10 to 100 nM; 2: > 1000 nM

----------
Biological target: CDK6/CyclinD3 (Homo sapiens)
Construct: purchased Carna 04-107
Sequence (Q00534 whole entry): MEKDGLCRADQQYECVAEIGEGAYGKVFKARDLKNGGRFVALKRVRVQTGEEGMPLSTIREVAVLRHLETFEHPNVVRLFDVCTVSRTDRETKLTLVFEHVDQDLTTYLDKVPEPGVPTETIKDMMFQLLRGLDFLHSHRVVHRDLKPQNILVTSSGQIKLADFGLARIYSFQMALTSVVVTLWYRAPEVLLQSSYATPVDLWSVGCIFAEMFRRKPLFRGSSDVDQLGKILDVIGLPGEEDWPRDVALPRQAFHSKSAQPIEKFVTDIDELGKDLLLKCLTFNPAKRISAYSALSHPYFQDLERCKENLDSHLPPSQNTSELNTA
Sequence (P30281 whole entry partner): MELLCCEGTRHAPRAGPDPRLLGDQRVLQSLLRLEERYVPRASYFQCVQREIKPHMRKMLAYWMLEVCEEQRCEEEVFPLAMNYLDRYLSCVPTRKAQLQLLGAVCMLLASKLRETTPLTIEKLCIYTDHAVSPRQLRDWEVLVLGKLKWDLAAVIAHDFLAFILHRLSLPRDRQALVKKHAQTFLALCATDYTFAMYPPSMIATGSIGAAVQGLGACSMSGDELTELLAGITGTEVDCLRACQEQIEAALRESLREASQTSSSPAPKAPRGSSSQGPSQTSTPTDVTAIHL
Assay: Assay for inhibition of CDK6/CyclinD3 (Caliper microfluidic kinase assay)
Type: biochemical
Settings: CDK6/CyclinD3, 300 μM ATP
pIC50: −log10 of the molar value.
For each record, write down the corresponding pIC50.

Past entries and their recorded results:
[[record]]
molecule = "CC(C)c1cnn2ccc(-c3ccnc(Nc4ccc(N5CCCNC5=O)cc4)n3)cc12"
quantity_name = "pIC50"
reported_result = "> 8.00"

[[record]]
molecule = "CC(C)c1cnn2ccc(-c3nc(Nc4ccc(N5CCOCC5=O)cc4F)ncc3F)cc12"
quantity_name = "pIC50"
reported_result = "7.00 to 8.00"


Go through the items and report each one's pIC50.
1. CN(C)C1CCN(c2ccc(Nc3nccc(-c4ccn5ncc(C(C)(C)C)c5c4)n3)nc2)C(=O)C1 (centres unmarked) [Synthetic Example 175]
2. CC(C)c1cnn2ccc(-c3nc(Nc4ccc(N5CCOCC5=O)c(C(F)(F)F)c4)ncc3F)cc12
3. CC(C)c1cnn2ccc(-c3ccnc(Nc4ccc(N5CCC(N6CCNCC6)CC5=O)cn4)n3)cc12 (centres unmarked)
4. CC(C)n1cnc2c(F)nc(-c3ccnc(Nc4ccc(N5CC6CC5CN6)cn4)n3)cc21 (centres unmarked)
5. Cc1nc2c(F)nc(-c3ccnc(Nc4ccc(N5CCNCC5=O)cn4)n3)cc2n1C(C)C
6. CC(C)c1cnn2ccc(-c3nc(Nc4ccc(N5CCOCC5=O)cc4)ncc3F)cc12

> 8.00
7.00 to 8.00
7.00 to 8.00
7.00 to 8.00
> 8.00
7.00 to 8.00

----------
Target: CDK4/CyclinD1 (Homo sapiens)
Construct: purchased Thermofisher PR8064A
Sequence (P11802 whole entry): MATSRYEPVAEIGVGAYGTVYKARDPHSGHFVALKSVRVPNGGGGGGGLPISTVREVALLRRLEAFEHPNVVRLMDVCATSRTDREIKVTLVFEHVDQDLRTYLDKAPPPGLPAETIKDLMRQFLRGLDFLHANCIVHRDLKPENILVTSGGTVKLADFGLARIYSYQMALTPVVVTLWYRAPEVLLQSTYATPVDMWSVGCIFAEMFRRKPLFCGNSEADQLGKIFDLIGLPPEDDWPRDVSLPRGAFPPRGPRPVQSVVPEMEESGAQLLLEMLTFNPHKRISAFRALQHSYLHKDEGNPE
Sequence (P24385 whole entry partner): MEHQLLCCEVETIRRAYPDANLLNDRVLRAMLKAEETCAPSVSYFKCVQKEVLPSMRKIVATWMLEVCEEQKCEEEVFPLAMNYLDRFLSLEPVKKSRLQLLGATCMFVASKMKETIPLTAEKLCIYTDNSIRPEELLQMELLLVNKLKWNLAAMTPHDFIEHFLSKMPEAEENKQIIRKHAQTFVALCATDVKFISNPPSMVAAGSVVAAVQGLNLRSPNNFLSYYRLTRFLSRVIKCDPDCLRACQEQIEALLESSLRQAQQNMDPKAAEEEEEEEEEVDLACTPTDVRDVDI
Assay: Assay for inhibition of CDK4/CyclinD1 (Caliper microfluidic kinase assay)
Assay type: biochemical
Conditions: CDK4/CyclinD1, 200 μM ATP
pIC50: −log10 of the molar value.
quantity-name: pIC50

[[record]]
compound = "CCNC1CCN(c2ccc(Nc3nccc(-c4ccn5ncc(C(C)C)c5c4)n3)c(F)c2)C(=O)C1 (stereo not drawn)"
measured_on = "CDK4/CyclinD1 (Homo sapiens)"
reported_result = "> 8.00"

[[record]]
compound = "CC(C)n1cnc2c(F)nc(-c3ccnc(Nc4ccc(N5CCN(C6CC6)CC5)cn4)n3)cc21"
measured_on = "CDK4/CyclinD1 (Homo sapiens)"
reported_result = "> 8.00"

[[record]]
compound = "COc1nc(-c2nc(Nc3ccc(N4CCNCC4=O)cc3F)ncc2F)cc2c1ncn2C(C)C"
measured_on = "CDK4/CyclinD1 (Homo sapiens)"
reported_result = "> 8.00"

[[record]]
compound = "CC(C)c1cnn2ccc(-c3nc(Nc4ccc(N5CCNCC5=O)cn4)ncc3F)cc12 [Synthetic Example 29]"
measured_on = "CDK4/CyclinD1 (Homo sapiens)"
reported_result = "> 8.00"

[[record]]
compound = "CC(C)c1cnn2ccc(-c3ccnc(Nc4ccc(N5CCC(C)(N)CC5=O)cc4)n3)cc12 (stereo not drawn)"
measured_on = "CDK4/CyclinD1 (Homo sapiens)"
reported_result = "> 8.00"


Go through the items and report each one's pIC50.
1. CC(C)c1cnn2ccc(-c3ccnc(Nc4ccc(N5CCNCC5=O)nc4)n3)cc12
2. CC(C)c1cnn2ccc(-c3ccnc(Nc4ccc(C(=O)N5CCC(N(C)C)C5)cc4F)n3)cc12 (stereo not drawn)
3. COc1cc(N2CCC(N(C)C)CC2=O)ccc1Nc1nccc(-c2cc3c(ncn3C(C)C)c(F)n2)n1 (stereo not drawn)
4. COc1nc(-c2nc(Nc3ccc(N4CCN(CCS(C)(=O)=O)CC4=O)cn3)ncc2F)cc2c1nc(C)n2C(C)C [Synthetic Example 121]
5. O=C1COCCN1c1ccc(Nc2ncc(F)c(-c3ccn4ncc(C5CCOCC5)c4c3)n2)nc1
6. CC(C)c1cnn2ccc(-c3ccnc(Nc4ccc(C(N)=O)cc4)n3)cc12
7. CC(C)c1cnn2ccc(-c3ccnc(Nc4ccc(C(=O)N5CCC(NC6CC6)C5)cc4)n3)cc12 (stereo not drawn) [compound 21]

["> 8.00", "7.00 to 8.00", "> 8.00", "> 8.00", "7.00 to 8.00", "> 8.00", "> 8.00"]
